Quick reference: Ki of the listed items.
Biological target: human factor VIIa (Homo sapiens)
Construct: Factor VIIa in the extrinsic pathway; purchased BiosPacific, Emeryville, Calif
Sequence (P08709 213-466 limits assumed): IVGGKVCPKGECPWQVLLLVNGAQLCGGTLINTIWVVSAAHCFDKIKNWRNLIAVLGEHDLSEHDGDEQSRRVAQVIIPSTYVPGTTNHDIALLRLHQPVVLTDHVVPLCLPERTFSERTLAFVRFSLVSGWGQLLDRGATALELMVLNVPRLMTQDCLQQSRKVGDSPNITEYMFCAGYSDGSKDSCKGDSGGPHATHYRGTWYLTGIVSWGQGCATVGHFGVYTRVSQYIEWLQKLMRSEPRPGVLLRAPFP
Sequence (P08709 61-212 partner limits assumed): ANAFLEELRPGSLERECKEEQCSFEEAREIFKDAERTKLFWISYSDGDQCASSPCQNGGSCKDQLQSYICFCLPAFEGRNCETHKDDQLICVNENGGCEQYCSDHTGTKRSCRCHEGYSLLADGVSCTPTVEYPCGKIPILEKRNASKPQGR
Assay: Inhibition of human factor VIIa (chromogenic substrate S2288), inhibitory constant Ki
Type: biochemical
Conditions: 50 nM human factor VIIa, S2288, pH 7.6, 4 mM CaCl2, 30 minutes; read-out: Ki values for inhibition of Serine Proteases: Factor VIIa

CC1(C)C2CC3OB([C@H](CCCNC(=N)N)NC(=O)Cn4nc(Cc5ccccc5)nc4Cc4ccccc4)OC3(C)C1C2 (single isomer, unassigned) ... < 500 nM
NCCCC[C@H](NC(=O)Cn1cnc(Cc2ccccc2)n1)B(O)O ... 500 to 50000 nM
CC1(C)C2CC3OB([C@H](CCCNC(=N)N)NC(=O)Cn4nc(Cc5ccccc5)nc4-c4cccc([N+](=O)[O-])c4)OC3(C)C1C2 (single isomer, unassigned) ... 500 to 50000 nM
CCCc1nc(Cc2ccccc2)n(CC(=O)N[C@@H](CCCCN)B2O[C@@H]3C[C@@H]4C[C@@H](C4(C)C)[C@]3(C)O2)n1 ... 500 to 50000 nM
CC(C)(C)NS(=O)(=O)c1ccccc1-c1ccc(C(=O)N[C@@H](CCCNC(=N)N)B(O)O)cc1 ... < 500 nM
COC(=O)Cc1nc(Cc2ccccc2)nn1CC(=O)N[C@@H](CCCCN)B1OC2CC3CC(C3(C)C)C2(C)O1 (stereo partly shown) ... 500 to 50000 nM
CC(C)(C)NS(=O)(=O)c1ccccc1-c1ccc(C(=O)N[C@@H](CCCNC=N)B2O[C@@H]3C[C@@H]4C[C@@H](C4(C)C)[C@]3(C)O2)cc1 ... 500 to 50000 nM
COC(=O)Cc1nc(Cc2ccccc2)n(CC(=O)N[C@@H](CCCCN)B2O[C@@H]3C[C@@H]4C[C@@H](C4(C)C)[C@]3(C)O2)n1 ... 500 to 50000 nM
CC1(C)[C@@H]2C[C@H]3OB([C@H](CCCSC(=N)N)NC(=O)c4cccc(-c5ccccc5)c4)O[C@@]3(C)[C@H]1C2 ... 500 to 50000 nM

Incoming: Using the record for CC1(C)C2CC3OB([C@H](CCCNC(=N)N)NC(=O)Cn4nc(Cc5ccccc5)nc4-c4ccccc4)OC3(C)C1C2 (single isomer, unassigned) , report its Ki.
Outgoing: < 500 nM
